Parameter 'readout' = IC50; parameter 'system' = acetylcholinesterase (Homo sapiens, UniProt P22303).
Sequence (P22303 other isoform, or with tags, fused parts or gaps): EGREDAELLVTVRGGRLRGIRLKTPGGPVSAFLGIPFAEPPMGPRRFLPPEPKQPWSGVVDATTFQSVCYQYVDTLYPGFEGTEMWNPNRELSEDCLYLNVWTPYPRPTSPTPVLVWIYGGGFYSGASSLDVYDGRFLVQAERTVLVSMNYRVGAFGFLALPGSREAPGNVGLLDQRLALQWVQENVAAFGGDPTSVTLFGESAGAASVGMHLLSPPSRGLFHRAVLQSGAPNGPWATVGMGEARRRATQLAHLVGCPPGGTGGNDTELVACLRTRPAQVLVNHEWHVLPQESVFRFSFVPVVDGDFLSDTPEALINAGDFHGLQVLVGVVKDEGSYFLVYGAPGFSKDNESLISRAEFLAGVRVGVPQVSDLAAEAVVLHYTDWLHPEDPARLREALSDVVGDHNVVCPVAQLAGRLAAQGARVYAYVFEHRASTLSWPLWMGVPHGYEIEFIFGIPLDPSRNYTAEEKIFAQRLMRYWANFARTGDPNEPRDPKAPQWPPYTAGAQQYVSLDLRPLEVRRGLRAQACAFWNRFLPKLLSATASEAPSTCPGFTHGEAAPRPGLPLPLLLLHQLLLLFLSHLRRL
property-label: IC50 (nM)

INSERT INTO measurements (compound, target_desc, value_measured) VALUES
  ('C[N+]1([C@H]2CCCC[C@H]2c2cccc(O)c2)CCCC1 (stereo in doubt) [Example 11]', 'acetylcholinesterase (Homo sapiens, UniProt P22303)', 20),
  ('C[N+]1([C@@H]2CCCC[C@@H]2c2ccc(Cl)cc2)CCCC1 (relative stereo) [Example 10]', 'acetylcholinesterase (Homo sapiens, UniProt P22303)', 200),
  ('Cc1cccc([C@H]2CCCC[C@H]2[N+]2(C)CCCC2)c1 (relative stereo) [Example 8]', 'acetylcholinesterase (Homo sapiens, UniProt P22303)', 6000),
  ('C[N+]1([C@@H]2CCCC[C@H]2c2cccc(O)c2)CCCC1 (relative stereo) [reference compound]', 'acetylcholinesterase (Homo sapiens, UniProt P22303)', 100000),
  ('CCCC(=O)Oc1cccc([C@@H]2CCCC[C@@H]2[N+]2(C)CCCC2)c1 (relative stereo) [Example 5]', 'acetylcholinesterase (Homo sapiens, UniProt P22303)', 20),
  ('C[N+]1([C@@H]2CCCC[C@@H]2c2cc(O)ccc2O)CCCC1 (relative stereo) [Example 16]', 'acetylcholinesterase (Homo sapiens, UniProt P22303)', 10),
  ('C[N+]1([C@@H]2CCCC[C@@H]2c2ccccc2)CCCC1 (relative stereo) [Example 1]', 'acetylcholinesterase (Homo sapiens, UniProt P22303)', 200),
  ('C[N+]1([C@@H]2CCC[C@@H]2c2cccc(O)c2)CCCC1 (relative stereo) [Example 14]', 'acetylcholinesterase (Homo sapiens, UniProt P22303)', 100),
  ('Cc1ccc([C@H]2CCCC[C@H]2[N+]2(C)CCCC2)cc1 (relative stereo) [Example 7]', 'acetylcholinesterase (Homo sapiens, UniProt P22303)', 1000),
  ('C[N+]1([C@@H]2CCCC[C@@H]2c2cccc(O)c2)CCCC1 (stereo in doubt) [Example 2]', 'acetylcholinesterase (Homo sapiens, UniProt P22303)', 20);

* * *

The following are reported Ki results, target or system bovine erythrocyte acetylcholinesterase (Bos taurus).
property-label: Ki (nM)

INSERT INTO results (compound, value_measured) VALUES
  ('C[N+]1([C@H]2CCCC[C@H]2c2cccc(O)c2)CCCC1 (stereo in doubt)', 7.3),
  ('CN(C)C(=O)Oc1cccc([N+](C)(C)C)c1 [Neostigmine, reference compound]', 30),
  ('CN(C)C(=O)Oc1ccc[n+](C)c1 [Pyridostigmine, reference compound]', 4800),
  ('C[N+]1([C@@H]2CCCC[C@@H]2c2ccccc2)CCCC1 (relative stereo)', 7.7);

* * *

Documented LD50 across a set of compounds
Assay: Intravenous LD50 in rats and therapeutic ratio
Format: in vivo, rat
Conditions: rat, in vivo; intravenous, rats
property-label: LD50 (mg/kg)

INSERT INTO results (compound, property_label, value_measured) VALUES
  ('C[N+]1([C@H]2CCCC[C@H]2c2cccc(O)c2)CCCC1 (stereo in doubt) [Example 11]', 'LD50', 0.18),
  ('CN(C)C(=O)Oc1cccc([N+](C)(C)C)c1 [Neostigmine, reference compound]', 'LD50', 0.2),
  ('C[N+]1([C@@H]2CCCC[C@@H]2c2ccccc2)CCCC1 (relative stereo) [Example 1]', 'LD50', 1.5);
